Each entry below lists one item and its recorded IC50 value.
TARGET_DESC: Induced myeloid leukemia cell differentiation protein Mcl-1 (Homo sapiens)
ASSAY_TEXT: Inhibition of […]-labelled BID binding to human MCl-1 (171 to 327 residues) expressed in Escherichia coli BL21 (DE3) by fluorescence polarization assay

MOLECULE_SMILES	IC50
Cc1cc(C(=O)N(CCc2ccccc2)CC(=O)O)sc1S(=O)(=O)Nc1cc(C(F)(F)F)ccc1Cl	690 nM
Cc1cc(C(=O)N[C@H](Cc2c[nH]cn2)C(=O)O)sc1S(=O)(=O)Nc1cc(C(F)(F)F)ccc1Cl	920 nM
Cc1cc(C(=O)N[C@@H](C(=O)O)C(C)C)sc1S(=O)(=O)Nc1cc(C(F)(F)F)ccc1Cl	660 nM
Cc1cc(C(=O)N[C@@H](Cc2ccccc2)C(=O)O)sc1S(=O)(=O)Nc1cc(C(F)(F)F)ccc1Cl	750 nM

====

Measured pIC50 values are reported for all entries that follow.
TARGET_DESC: Induced myeloid leukemia cell differentiation protein Mcl-1 (Homo sapiens, UniProt Q07820)
Sequence (Q07820 whole entry, the tested form may be a part): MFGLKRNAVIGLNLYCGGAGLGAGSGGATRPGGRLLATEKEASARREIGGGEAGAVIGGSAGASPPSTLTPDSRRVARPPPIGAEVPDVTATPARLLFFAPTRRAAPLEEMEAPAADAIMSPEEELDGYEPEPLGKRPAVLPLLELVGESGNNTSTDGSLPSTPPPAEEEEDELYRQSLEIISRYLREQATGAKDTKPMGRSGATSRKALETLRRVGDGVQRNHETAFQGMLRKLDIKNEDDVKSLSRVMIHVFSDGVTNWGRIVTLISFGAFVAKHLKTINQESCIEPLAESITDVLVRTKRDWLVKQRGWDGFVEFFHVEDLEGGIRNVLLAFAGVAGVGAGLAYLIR
ASSAY_TEXT: Inhibition of […]-labelled BID binding to human MCl-1 (171 to 327 residues) expressed in Escherichia coli BL21 (DE3) by fluorescence polarization assay
pIC50: −log10 of the molar value.

MOLECULE_SMILES	pIC50
Cc1ccc(S(=O)(=O)Nc2cc(C(F)(F)F)ccc2Cl)c(C)c1	4.92
O=S(=O)(Nc1cc(C(F)(F)F)ccc1Cl)c1sc(Cl)cc1Cl	5.07
O=S(=O)(Nc1cc(Cl)c(Cl)cc1Cl)c1cc(Cl)ccc1Cl	5.05
